Each recorded value in this set is attributed to the supplement of paper PMC7877785.

Assay: self-splicing fitness, log relative to wild type (ln ratio); higher = more splicing; Tetrahymena group I intron in knt gene, E. coli kanamycin selection, DiMSum; sequences stand for … in CUCUCU…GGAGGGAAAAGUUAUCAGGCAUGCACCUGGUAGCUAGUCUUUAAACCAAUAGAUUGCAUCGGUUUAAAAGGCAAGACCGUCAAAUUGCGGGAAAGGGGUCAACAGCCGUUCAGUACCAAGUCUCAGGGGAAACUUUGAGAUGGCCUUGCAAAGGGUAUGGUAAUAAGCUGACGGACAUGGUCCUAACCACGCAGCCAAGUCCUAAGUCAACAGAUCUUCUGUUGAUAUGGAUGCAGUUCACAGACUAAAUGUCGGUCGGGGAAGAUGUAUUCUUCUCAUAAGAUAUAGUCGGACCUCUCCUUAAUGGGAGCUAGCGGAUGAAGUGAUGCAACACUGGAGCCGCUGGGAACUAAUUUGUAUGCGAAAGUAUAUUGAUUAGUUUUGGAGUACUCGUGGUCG;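 note: selection with 25 µg/mL kanamycin versus none on LB agar overnight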
Details: 30 °C
Cut-off -1 on self-splicing fitness (ln), inclusive. At or above means rule met; below means rule not met.

Check out these entries, answers already filled in.
> print(dat)
               sequence  assigned.label
1  CGGCAGCAAUAUUACGCCAA    rule not met
2  UUGAAGCAAUAUUACGUCAA        rule met
3  GGGUAGCAAUAUUACGGGUU    rule not met
4  UGACAGCAAUAUUACGGUGC    rule not met
5  CAGAAGCAAUAUUACGGGGC    rule not met

# next sequence below
Check if self-splicing fitness (ln) >= -1 (inclusive). Item: `AACAAGCAAUAUUACGACCU`
rule met

* * *

Test: self-splicing fitness, log relative to wild type (ln ratio); higher = more splicing; Tetrahymena group I intron in knt gene, E. coli kanamycin selection, DiMSum; sequences stand for … in CUCUCU…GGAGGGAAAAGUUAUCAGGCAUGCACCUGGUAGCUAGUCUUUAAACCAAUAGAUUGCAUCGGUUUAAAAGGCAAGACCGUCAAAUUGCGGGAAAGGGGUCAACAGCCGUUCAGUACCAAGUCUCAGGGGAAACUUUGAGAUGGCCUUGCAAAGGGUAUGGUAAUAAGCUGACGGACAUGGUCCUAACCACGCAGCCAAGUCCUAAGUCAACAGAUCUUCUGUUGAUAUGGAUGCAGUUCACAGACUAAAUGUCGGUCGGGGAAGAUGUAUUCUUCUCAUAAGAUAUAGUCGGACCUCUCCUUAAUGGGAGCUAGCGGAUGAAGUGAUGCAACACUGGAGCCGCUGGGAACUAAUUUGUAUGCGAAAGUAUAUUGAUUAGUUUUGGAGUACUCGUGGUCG
Settings: 30 °C
Quantity Measured: self-splicing fitness (ln)
Reply with the value as a number alone.

Some sequences with known self-splicing fitness (ln) results, for comparison:
> print(dat)
               sequence  test.result
1  CGGAAGCAAUAUUACGCAAC        -1.88
2  AAAUAGCAAUAUUACGGAUG         -2.5
3  AAUGAGCAAUAUUACGGCUU        -1.85
4  CUUCAGCAAUAUUACGUGUG         -1.1
5  GUCUAGCAAUAUUACGUAUC       -0.834

Requested read-out: self-splicing fitness (ln). Entry: `AGUGAGCAAUAUUACGUUCG`
-3.26

Could you tell me which self-splicing fitness (ln) is on file for `UUGCAGCAAUAUUACGCCUC` ?
-2.47

Look up self-splicing fitness (ln): `AUGCAGCAAUAUUACGCGUG`
-3.92

* * *

Assay: self-splicing fitness, log relative to wild type (ln ratio); higher = more splicing; Tetrahymena group I intron in knt gene, E. coli kanamycin selection, DiMSum; sequences stand for … in CUCUCU…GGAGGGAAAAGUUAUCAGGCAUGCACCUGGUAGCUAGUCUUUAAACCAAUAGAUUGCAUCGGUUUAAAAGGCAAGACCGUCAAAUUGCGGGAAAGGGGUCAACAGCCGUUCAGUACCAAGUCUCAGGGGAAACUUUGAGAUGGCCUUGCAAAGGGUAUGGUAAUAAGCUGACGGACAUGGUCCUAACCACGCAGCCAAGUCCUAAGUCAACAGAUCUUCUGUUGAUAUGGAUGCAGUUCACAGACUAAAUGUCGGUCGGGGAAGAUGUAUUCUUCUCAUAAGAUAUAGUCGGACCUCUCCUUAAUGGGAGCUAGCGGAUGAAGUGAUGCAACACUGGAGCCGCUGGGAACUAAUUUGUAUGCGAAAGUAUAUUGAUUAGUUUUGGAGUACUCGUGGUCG
Conditions: 37 °C
Threshold check on self-splicing fitness (ln): at or above -1 gives t, strictly below gives f.

> print(dat)
               sequence  assigned.label
1  UCACAGCAAUAUUACGACAU               f

hey, is self-splicing fitness (ln) for this one >= -1? `AACCAGCAAUAUUACGAGCA`
t

Entry `ACCCAGCAAUAUUACGAGUU` : is its self-splicing fitness (ln) no less than -1?
t

Would you say `GACCAGCAAUAUUACGGUGA` shows self-splicing fitness (ln) at minimum -1?
t

* * *

Assay: self-splicing fitness, log relative to wild type (ln ratio); higher = more splicing; Tetrahymena group I intron in knt gene, E. coli kanamycin selection, DiMSum; sequences stand for … in CUCUCU…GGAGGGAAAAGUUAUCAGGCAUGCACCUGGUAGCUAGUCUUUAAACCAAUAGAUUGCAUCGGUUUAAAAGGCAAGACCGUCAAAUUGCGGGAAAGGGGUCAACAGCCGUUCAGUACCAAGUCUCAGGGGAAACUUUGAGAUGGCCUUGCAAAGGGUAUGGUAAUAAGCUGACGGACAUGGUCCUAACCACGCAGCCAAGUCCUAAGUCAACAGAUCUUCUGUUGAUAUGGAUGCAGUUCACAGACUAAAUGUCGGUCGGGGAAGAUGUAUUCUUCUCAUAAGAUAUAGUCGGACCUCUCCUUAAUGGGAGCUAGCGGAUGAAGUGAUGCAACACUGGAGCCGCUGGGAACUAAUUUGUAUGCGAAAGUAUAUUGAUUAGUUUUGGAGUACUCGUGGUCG
Conditions: 30 °C
Classification field: Criterion met = self-splicing fitness (ln) at or over -2; Criterion not met = self-splicing fitness (ln) under -2.

Here's what some known entries look like.
> print(dat)
               sequence     assigned.label
1  GAGUAGCAAUAUUACGCGUG  Criterion not met
2  CGGCAGCAAUAUUACGGCUG  Criterion not met
3  ACUUAGCAAUAUUACGCGAA      Criterion met
4  GCGCAGCAAUAUUACGAGUC      Criterion met
5  CAGCAGCAAUAUUACGCUAU  Criterion not met
6  AUCUAGCAAUAUUACGUUUC  Criterion not met

API: above_or_equal(metric=self-splicing fitness (ln), cutoff=-2) for item `CGCUAGCAAUAUUACGAUUA`
Criterion not met

# check: self-splicing fitness (ln) of `CGGUAGCAAUAUUACGUCCU` is greater than or equal to -2
Criterion met

Hi, just wondering whether `GUUCAGCAAUAUUACGGAGU` shows self-splicing fitness (ln) of -2 or higher.
Criterion met

Entry `UUGUAGCAAUAUUACGUCGG` : is its self-splicing fitness (ln) no less than -2?
Criterion met

State whether the measured self-splicing fitness (ln) reaches -2, counting equality as reaching it, for `UUUAAGCAAUAUUACGGCCU`
Criterion met

Hello, I need to know if `AGGGAGCAAUAUUACGAGUA` has measured self-splicing fitness (ln) not below -2. Thanks!
Criterion not met

* * *

Test: self-splicing fitness, log relative to wild type (ln ratio); higher = more splicing; Tetrahymena group I intron in knt gene, E. coli kanamycin selection, DiMSum; sequences stand for … in CUCUCU…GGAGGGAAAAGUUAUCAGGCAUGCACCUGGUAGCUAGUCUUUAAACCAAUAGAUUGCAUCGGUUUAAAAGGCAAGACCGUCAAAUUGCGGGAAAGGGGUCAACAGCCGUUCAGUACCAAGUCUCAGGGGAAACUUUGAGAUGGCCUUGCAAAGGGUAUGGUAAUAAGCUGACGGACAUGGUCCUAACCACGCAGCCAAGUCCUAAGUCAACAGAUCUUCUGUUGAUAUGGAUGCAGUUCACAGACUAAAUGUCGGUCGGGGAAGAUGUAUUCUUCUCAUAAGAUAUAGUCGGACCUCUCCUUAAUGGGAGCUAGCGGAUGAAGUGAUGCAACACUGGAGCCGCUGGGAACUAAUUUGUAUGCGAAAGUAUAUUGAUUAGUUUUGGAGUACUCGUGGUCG
Settings: 37 °C
Quantity Measured: self-splicing fitness (ln)

Solved entries (count: 6):
> print(dat)
               sequence  test.result
1  GCAGAGCAAUAUUACGAUGU        -2.42
2  AUUUAGCAAUAUUACGCGAA       -0.549
3  GGGUAGCAAUAUUACGUCCA        0.376
4  CGUCAGCAAUAUUACGUGUU        -0.86
5  CAACAGCAAUAUUACGUACA        -1.12
6  CCGGAGCAAUAUUACGGUCG       -0.072

Give its self-splicing fitness (ln) value. Item: `ACGAAGCAAUAUUACGAAAU`
-1.5

Could you tell me which self-splicing fitness (ln) is on file for `ACAUAGCAAUAUUACGAGUC` ?
-3.33

Data request, read-out self-splicing fitness (ln), for `AUAGAGCAAUAUUACGCUUC`
-1.47

Would you mind telling me what self-splicing fitness (ln) value was observed for `UGUAAGCAAUAUUACGACUG` ?
-1.14

For `AGAUAGCAAUAUUACGCCGC` , what is its reported self-splicing fitness (ln)?
-2.04

Query: self-splicing fitness (ln); subject: `CACGAGCAAUAUUACGAUGU`
-3.49

Name the reported self-splicing fitness (ln) value associated with the sequence `GGGAAGCAAUAUUACGGGCU`
-0.846

What does the data say about its self-splicing fitness (ln)? Entry: `CGUAAGCAAUAUUACGAAGG`
-1.16

Reported self-splicing fitness (ln) for `AGAAAGCAAUAUUACGUGUA` : what is it?
-0.737
